target: 5-HT1B (h) (Homo sapiens); construct: host or cells: Chem-1 (RBL) cells; test: Competition assay to measure binding affinity at 5-HT1B receptor; settings: test ligand 10 μM; [3H]GR125743 1 nM
Sequence (P28222 whole entry): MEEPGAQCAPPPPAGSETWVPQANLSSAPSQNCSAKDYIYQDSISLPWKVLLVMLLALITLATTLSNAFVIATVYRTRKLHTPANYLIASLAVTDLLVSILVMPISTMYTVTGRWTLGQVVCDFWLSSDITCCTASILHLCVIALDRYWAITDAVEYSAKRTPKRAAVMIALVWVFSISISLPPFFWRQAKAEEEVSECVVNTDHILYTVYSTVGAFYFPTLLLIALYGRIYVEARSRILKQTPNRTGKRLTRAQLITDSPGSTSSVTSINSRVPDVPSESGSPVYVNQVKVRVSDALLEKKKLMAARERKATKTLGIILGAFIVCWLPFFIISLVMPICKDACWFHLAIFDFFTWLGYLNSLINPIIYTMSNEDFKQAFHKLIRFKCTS
List of HT1B, percent of control-specific binding values.
Number only, in %; omit the unit.

CC(NC(C)(C)C)C(=O)c1cccc(Cl)c1 (centres unmarked) [Bupropion, reference compound]
9

Q: Tell me reported HT1B, percent of control-specific binding for CC(Cc1ccc2c(c1)OCO2)NC1CCC1 (centres unmarked) [A(I)] , tested with 5-HT1B (h) (Homo sapiens).
A: 0

Q: Given the entry CCOc1c(OC)cc(CCN)cc1OC [escaline] , what HT1B, percent of control-specific binding was observed with 5-HT1B (h) (Homo sapiens)?
A: 0

Q: Recorded HT1B, percent of control-specific binding for CC(Cc1ccc2c(c1)OCO2)N1CCOCC1 (centres unmarked) [A(III)] with 5-HT1B (h) (Homo sapiens), please?
A: 0

Q: Look up HT1B, percent of control-specific binding with 5-HT1B (h) (Homo sapiens) for this compound: CC(Cc1ccc2c(c1)OCO2)NN(C)C (centres unmarked) [A(VIII)]
A: 0

----------
biological target: 5-HT7 (h) (Homo sapiens); construct: host or cells: HEK-293 cells; assay: Competition assay to measure binding affinity at 5-HT7 receptor; conditions: test ligand 10 μM; [3H]LSD 4 nM
Sequence (P34969 whole entry): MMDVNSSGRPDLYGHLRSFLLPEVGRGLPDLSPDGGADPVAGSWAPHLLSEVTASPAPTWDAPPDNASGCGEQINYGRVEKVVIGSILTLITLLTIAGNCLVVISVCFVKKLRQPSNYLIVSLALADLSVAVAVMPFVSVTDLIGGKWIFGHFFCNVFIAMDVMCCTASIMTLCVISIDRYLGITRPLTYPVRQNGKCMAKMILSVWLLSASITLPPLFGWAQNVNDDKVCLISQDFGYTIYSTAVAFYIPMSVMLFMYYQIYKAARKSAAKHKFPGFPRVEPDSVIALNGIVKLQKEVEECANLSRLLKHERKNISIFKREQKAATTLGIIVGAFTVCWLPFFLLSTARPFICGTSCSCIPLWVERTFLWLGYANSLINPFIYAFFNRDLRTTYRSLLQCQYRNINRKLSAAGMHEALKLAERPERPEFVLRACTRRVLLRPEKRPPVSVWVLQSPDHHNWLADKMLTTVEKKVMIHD
Each item that follows carries a reported HT7, percent of control-specific binding.
Write the answer as a number in %, unit excluded.

Look over these answered cases.
COc1cc2c(cc1CCNCCO)OCO2
35
CC(Cc1ccc2c(c1)OCO2)N1CCC1 (centres unmarked)
59
CC(C)(C)OC(=O)NC1CN(CCc2ccc3c(c2)OCO3)C1
58
c1cc2c(cc1CCN1CCOCC1)OCO2
14
CC(Cc1ccc2c(c1)OCCO2)NCc1cc2c(cc1Br)OCO2 (centres unmarked)
72
CC(Cc1ccc2c(c1)OCO2)NCc1cc2c(cc1Br)OCO2 (centres unmarked)
67
COc1cc2c(cc1CCN1CCCC1)OCO2
75
OCCNCCc1cc2c(cc1Br)OCO2
61
CC(Cc1ccc2c(c1)OCO2)NC1CCC1 (centres unmarked)
5
CC(Cc1ccc2c(c1)OCCO2)NCc1cc2c(cc1Br)OCCO2 (centres unmarked)
62

Q: Look up HT7, percent of control-specific binding for this molecule: CC(Cc1ccc2c(c1)OCCO2)NCc1ccc2c(c1)OCO2 (centres unmarked)
A: 51

----------
Overview of reported NET, percent of control-specific binding across a group of compounds:
target: NET (h) (Homo sapiens); construct: host or cells: CHO cells; assay: Competition assay to measure binding affinity at norepinephrine transporter (NET); settings: test ligand 10 μM; [3H]nisoxetine 1 nM
Sequence (P23975 whole entry): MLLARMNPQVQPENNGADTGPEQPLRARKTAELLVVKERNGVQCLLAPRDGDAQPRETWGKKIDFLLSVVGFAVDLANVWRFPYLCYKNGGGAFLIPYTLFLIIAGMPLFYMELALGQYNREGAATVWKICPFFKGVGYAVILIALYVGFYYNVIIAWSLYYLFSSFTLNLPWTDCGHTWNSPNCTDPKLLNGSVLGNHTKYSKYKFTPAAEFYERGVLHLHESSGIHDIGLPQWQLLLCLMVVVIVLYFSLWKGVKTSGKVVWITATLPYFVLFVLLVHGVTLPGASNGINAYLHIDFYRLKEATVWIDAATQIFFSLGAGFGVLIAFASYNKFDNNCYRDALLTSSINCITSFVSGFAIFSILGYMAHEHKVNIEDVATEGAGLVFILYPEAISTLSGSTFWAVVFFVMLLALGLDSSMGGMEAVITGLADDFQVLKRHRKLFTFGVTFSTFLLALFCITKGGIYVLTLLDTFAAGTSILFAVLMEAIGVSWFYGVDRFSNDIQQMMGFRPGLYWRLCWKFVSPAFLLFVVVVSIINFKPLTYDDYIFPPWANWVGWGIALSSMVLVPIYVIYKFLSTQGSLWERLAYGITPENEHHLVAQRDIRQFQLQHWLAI
Write the number in % without appending the unit.

CCCOc1c(OC)cc(CCN)cc1OC [proscaline, reference compound]
−9

Q: Fill in the blank: the reported NET, percent of control-specific binding of CC(Cc1ccc2c(c1)OCO2)NC1CCC1 (stereo not drawn) is ____.
A: 62

Q: Could you share which NET, percent of control-specific binding value was measured for `CC(C)(C)OC(=O)NC1CN(CCc2ccc3c(c2)OCO3)C1` ?
A: 11

Q: Query (compound): `COc1cc2c(cc1CC(=O)N1CCCC1)OCO2` ; field requested: NET, percent of control-specific binding
A: 0

Q: So what does the record say about NET, percent of control-specific binding for `O=C(Cc1ccc2c(c1)OC(F)(F)O2)N1CCCC1` ?
A: 15

Q: # query: NET, percent of control-specific binding of entry CC(Cc1ccc2c(c1)OCO2)N1CC(NC(=O)OC(C)(C)C)C1 (stereo not drawn)
A: 15

Q: Item CC(Cc1ccc2c(c1)OCO2)N1CCOCC1 (stereo not drawn) has what recorded NET, percent of control-specific binding?
A: 0

Q: Recorded NET, percent of control-specific binding for `O=C(Cc1c(Br)ccc2c1OCO2)N1CCCC1` , please?
A: 0

Q: Dear colleague, I am looking for the recorded NET, percent of control-specific binding of the following compound: CC(Cc1ccc2c(c1)OCCO2)NCc1cc2c(cc1Br)OCCO2 (stereo not drawn)
A: 64

Q: Need NET, percent of control-specific binding, item CC(Cc1ccc2c(c1)OCO2)NCc1cc2c(cc1Br)OCO2 (stereo not drawn)
A: 55

Q: Recorded NET, percent of control-specific binding for `c1cc(CCN2CCCC2)c2c(c1)OCO2` , please?
A: 2

----------
biological target: 5-HT2C (h) (Homo sapiens); construct: host or cells: HEK-293 cells; assay: Competition assay to measure binding affinity at 5-HT2C receptor; conditions: test ligand 10 μM; [125I](±)DOI 0.1 nM
Sequence (P28335 33-458): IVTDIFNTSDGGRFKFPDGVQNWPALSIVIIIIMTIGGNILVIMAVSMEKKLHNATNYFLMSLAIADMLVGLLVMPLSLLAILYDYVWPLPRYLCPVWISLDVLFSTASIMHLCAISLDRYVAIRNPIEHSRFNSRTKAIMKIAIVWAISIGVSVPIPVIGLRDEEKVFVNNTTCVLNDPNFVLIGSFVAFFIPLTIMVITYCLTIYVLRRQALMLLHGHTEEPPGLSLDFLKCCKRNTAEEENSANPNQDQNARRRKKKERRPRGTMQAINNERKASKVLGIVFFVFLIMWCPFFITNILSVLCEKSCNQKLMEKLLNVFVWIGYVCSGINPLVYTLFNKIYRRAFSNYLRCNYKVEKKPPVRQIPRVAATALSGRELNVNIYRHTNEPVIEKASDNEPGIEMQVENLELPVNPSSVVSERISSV
Each record here notes measured HT2C, percent of control-specific binding.
Put your answer as a value accompanied by its unit after it.

Some solved entries appear below for comparison.
CC(Cc1ccc2c(c1)OCCO2)NC1CCC1 (centres unmarked)
20%
COc1cc2c(cc1CCNCCO)OCO2
76%
OCCNCCc1cc2c(cc1Br)OCO2
57%

Q: Entry `COc1cc2c(cc1CC(=O)N1CCCC1)OCO2` : reported HT2C, percent of control-specific binding = ?
A: 32%

Q: Which measured HT2C, percent of control-specific binding value corresponds to CNCC[C@H](Oc1cccc2ccccc12)c1cccs1 [Duloxetine, reference compound] ?
A: 92%

----------
molecular target: 5-HT1A receptor (Homo sapiens, UniProt P08908); construct: purchased Perkin Elmer 6110501400UA; assay: 5-HT1A receptor radioligand competition assay (SPA); format: binding; details: competition with 0.5 nM 8-hydroxy-DPAT [3H]; test compound 3 nM to 1 mM; read-out: 5-HT1A, Ki
Sequence (P08908 whole entry): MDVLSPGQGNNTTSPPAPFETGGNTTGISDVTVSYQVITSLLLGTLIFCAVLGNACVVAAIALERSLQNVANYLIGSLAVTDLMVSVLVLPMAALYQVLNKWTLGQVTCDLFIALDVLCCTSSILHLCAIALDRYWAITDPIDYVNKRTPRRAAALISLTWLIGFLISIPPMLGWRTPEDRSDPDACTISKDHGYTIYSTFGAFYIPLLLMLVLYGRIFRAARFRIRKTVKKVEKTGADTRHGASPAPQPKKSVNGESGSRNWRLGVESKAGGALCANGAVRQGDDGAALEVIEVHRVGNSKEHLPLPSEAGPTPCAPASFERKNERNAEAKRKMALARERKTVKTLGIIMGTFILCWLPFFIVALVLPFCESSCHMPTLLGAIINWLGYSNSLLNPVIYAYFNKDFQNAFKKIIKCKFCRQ
We begin with a simple list: items and their reported Ki.

Here's what some known entries look like.
CON(C)C(C)Cc1ccc2c(c1)OCO2 (stereo not drawn) [A(XVIII)]
> 1000 µM
N[C@@H](Cc1c[nH]c2ccccc12)C(=O)O [tryptophan, reference compound]
> 1000 µM

Next compound, Ki to be filled in.
Q: Given the entry O=C(Cc1ccc2c(c1)OC(F)(F)O2)N1CCCC1 [A(XXVII)] , report its measured Ki.
A: > 1000 µM

----------
target: MT1 (ML1A) (h) (Homo sapiens, UniProt P48039); construct: host or cells: CHO cells; assay: Competition assay to measure binding affinity at MT1 receptor; settings: test ligand 10 μM; [125I]2-iodomelatonin 0.01 nM
Sequence (P48039 whole entry): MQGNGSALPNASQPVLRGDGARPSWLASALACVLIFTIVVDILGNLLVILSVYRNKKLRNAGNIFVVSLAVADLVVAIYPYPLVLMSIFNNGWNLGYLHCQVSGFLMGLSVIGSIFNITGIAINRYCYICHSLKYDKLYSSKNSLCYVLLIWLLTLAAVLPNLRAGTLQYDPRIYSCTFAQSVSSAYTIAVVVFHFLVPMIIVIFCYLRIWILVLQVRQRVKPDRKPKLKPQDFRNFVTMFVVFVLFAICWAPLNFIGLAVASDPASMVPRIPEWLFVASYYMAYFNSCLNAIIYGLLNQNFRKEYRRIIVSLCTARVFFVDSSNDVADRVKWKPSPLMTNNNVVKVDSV
PROPERTY_NAME: MT1, percent of control-specific binding (%)
Kindly answer with a numeric value in %, unit omitted.

O=C(Cc1c(Br)ccc2c1OCO2)N1CCCC1
30
COc1cc2c(cc1CC(=O)NCCO)OCO2
18

Q: Looking for the measured MT1, percent of control-specific binding of CC(Cc1ccc2c(c1)OCO2)NC1CCC1 (stereo not drawn) , can you help?
A: 2

Q: Recorded MT1, percent of control-specific binding of `FC1(F)Oc2ccc(CCN3CCCC3)cc2O1` , please.
A: 0

----------
target: MT1 (ML1A) (h) (Homo sapiens); construct: host or cells: CHO cells; assay: Competition assay to measure binding affinity at MT1 receptor; conditions: test ligand 10 μM; [125I]2-iodomelatonin 0.01 nM
Please note: MT1, percent of control-specific binding exactly at 3% is no. Only values below 3% get yes.

See these solved cases before continuing.
COc1cc2c(cc1CCN1CCCC1)OCO2 [A(XIV)]
no
CC(C)(C)OC(=O)NC1CN(CCc2ccc3c(c2)OCO3)C1 [A(XV)]
yes
O=C(Cc1ccc2c(c1)OC(F)(F)O2)N1CCCC1 [A(XXVII)]
yes

Q: Is MT1, percent of control-specific binding strictly under 3% for the entry CC(Cc1ccc2c(c1)OCO2)NN(C)C (centres unmarked) [A(VIII)] ?
A: no

Q: # TODO verify MT1, percent of control-specific binding < 3% strictly for this compound: CC(Cc1ccc2c(c1)OCO2)NCc1cc2c(cc1Br)OCO2 (centres unmarked) [A(VI)]
A: no

Q: Please let me know if CNCC[C@H](Oc1cccc2ccccc12)c1cccs1 [Duloxetine, reference compound] shows MT1, percent of control-specific binding below 3%.
A: no

Q: A record lists CCOc1c(OC)cc(CCN)cc1OC [escaline] . Is its MT1, percent of control-specific binding below 3%?
A: yes

Q: # TODO verify MT1, percent of control-specific binding < 3% strictly for this compound: COc1ccc2cccc(CCNC(C)=O)c2c1 [Agomelatine, reference compound]
A: no

Q: Could you please tell me whether MT1, percent of control-specific binding recorded for CNC(C)Cc1ccc2c(c1)OCO2 (centres unmarked) [MDMA, reference compound] is less than 3%?
A: yes

Q: Hello, is MT1, percent of control-specific binding of the following compound strictly smaller than 3%? COc1cc2c(cc1CCNCCO)OCO2 [A(XXIV)]
A: yes

----------
molecular target: D2 (h) (Homo sapiens, UniProt P14416); construct: host or cells: HEK-293 cells; test: Competition assay to measure binding affinity at D2L receptor; conditions: test ligand 10 μM; [3H]methylspiperone 0.3 nM
Sequence (P14416 whole entry): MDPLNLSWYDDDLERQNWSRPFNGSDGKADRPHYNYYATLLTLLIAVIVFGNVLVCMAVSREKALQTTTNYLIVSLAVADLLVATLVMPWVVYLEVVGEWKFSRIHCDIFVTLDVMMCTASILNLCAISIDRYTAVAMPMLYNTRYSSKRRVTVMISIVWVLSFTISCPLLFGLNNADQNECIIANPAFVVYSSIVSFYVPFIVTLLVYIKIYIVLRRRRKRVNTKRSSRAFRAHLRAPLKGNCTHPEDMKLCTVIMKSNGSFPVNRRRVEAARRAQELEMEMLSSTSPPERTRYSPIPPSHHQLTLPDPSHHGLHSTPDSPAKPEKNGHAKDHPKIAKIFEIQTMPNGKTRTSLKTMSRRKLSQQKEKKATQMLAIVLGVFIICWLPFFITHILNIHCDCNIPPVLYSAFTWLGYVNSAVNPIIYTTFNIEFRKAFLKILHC
PROPERTY_NAME: D2, percent of control-specific binding (%)
Give the value in % but do not write % after it.

Example cases with answers are listed next.
CC(Cc1ccc2c(c1)OCCO2)NCc1ccccc1 (centres unmarked)
9
COc1cc2c(cc1CCN1CCCC1)OCO2
12
COc1cc(CCN)cc(OC)c1OC
3
N#CC(Cc1ccc2c(c1)OCO2)NC1CCC1 (centres unmarked)
24
CC(Cc1ccc2c(c1)OCCO2)NCc1ccc2c(c1)OCO2 (centres unmarked)
26
COc1cc2c(cc1CCNCCO)OCO2
7
CNC(C)Cc1ccc2c(c1)OCO2 (centres unmarked) [MDMA, reference compound]
−10
c1cc(CCN2CCCC2)c2c(c1)OCO2
0

Q: Param item = CON(C)C(C)Cc1ccc2c(c1)OCO2 (centres unmarked) ; retrieve measured D2, percent of control-specific binding.
A: 0

Q: Quick check: D2, percent of control-specific binding of COc1ccc2[nH]cc(CCNC(C)=O)c2c1 [Melatonin, reference compound] ?
A: −20

Q: Give the measured D2, percent of control-specific binding of CC(Cc1ccc2c(c1)OCO2)NN(C)C (centres unmarked) .
A: 12
